Reference source for all entries: patent US11661461B2

- measured-target: T1, phosphorylated Rab10 in lysates of HEK cells overexpressing LRRK2 (Homo sapiens, UniProt P61026)
- T1 construct: expressed in transfected cells; host or cells: HEK cells overexpressing LRRK2
- T1 sequence (P61026 1-200): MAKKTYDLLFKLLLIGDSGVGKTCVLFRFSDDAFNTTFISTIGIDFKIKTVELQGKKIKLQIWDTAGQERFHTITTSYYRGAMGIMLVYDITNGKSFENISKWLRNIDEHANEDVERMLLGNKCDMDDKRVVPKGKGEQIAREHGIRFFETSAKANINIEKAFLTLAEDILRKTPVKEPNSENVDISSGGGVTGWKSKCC
- test-summary: Sandwich ELISA (diagnostic), HEK cells overexpressing LRRK2
- Format: binding
- condition-parameters: DMSO treated cells
readout-kind: Sandwich ELISA (diagnostic) HEK cells overexpressing LRRK2, DMSO (RLU mean ± SD) (RLU)

[[record]]
molecule = "Clone 81-11: anti-phosphorylated (pT73) Rab10 rabbit monoclonal antibody; VH SEQ ID NO:21, VL SEQ ID NO:25 (antibody, V domains shown) VH: METGLRWLLLVAVLKGVQCQSVEESGGRLVTPGTPLTLTCTVSGFSLSSYAMSWVRQAPGKGLEYIGLFNDVGIAYYANWAKGRFTFSKTSTTVDLKITSPTTEDTATYFCARVGGTTRVYGMDLWGPGTLVTVSS VL: MDTRAPTQLLGLLLLWLPGATFAAVLTQTPSPVSAAVGGTVSISCQSSKSVRHNNYLSWYQQKPGQRPKLLIYGASTLASGVPSRFSGSGSGTEFTLTISDVQCDDAATYYCAGGYSGGGDDAFGGGTEVVVE"
value = 473585

